experiment: HD-MB03 medulloblastoma cell growth inhibition, synergistic combos for chromothripsis tumors, BGB or cisplatin IC20 combos (AID 1671455); conditions: HD-MB03 medulloblastoma cells, at 0.5 µM, stronger effect = higher value;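 note: 0% = vehicle DMSO and 100% = high DMSO as cytotoxic control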
Property Label: inhibition (%)

{"Compound": "NC(Cc1ccc(N(CCCl)CCCl)cc1)C(=O)O (stereo unspecified)", "U": "%", "Reported Value": 12.1}
{"Compound": "O=C1CCC[C@@H]2[C@H]3CCCN4CCC[C@@H](CN12)[C@@H]34", "U": "%", "Reported Value": 2.42}
{"Compound": "Cn1c(COP(=O)(NCCBr)NCCBr)cnc1[N+](=O)[O-]", "U": "%", "Reported Value": -3.14}
{"Compound": "Cc1c2ccncc2c(C)c2c1[nH]c1ccccc12", "U": "%", "Reported Value": 21.3}
{"Compound": "O=c1[nH]c(=O)n(C2OC(CO)C(O)C2O)cc1F (stereo unspecified)", "U": "%", "Reported Value": 66.9}
{"Compound": "Cn1c(CCCC(=O)O)nc2cc(N(CCCl)CCCl)ccc21", "U": "%", "Reported Value": -13.4}

====

test: sensitizers of A549 cells to miR-34 induction, primary screen, imaging, A549 dox-inducible miR-34, nuclei and caspase counts (AID 1347080); settings: A549 miR-34 inducible, Hoechst nuclei count, 48 h; measured here: total cells with miR-34 induction; stronger effect = lower value
Label scheme for cell count: low interval = under 5000, middle interval = from 5000 up to 9000, high interval = 9000 and over

{"Compound": "CCN1CCN(C(=O)Cc2ccc(Nc3ncc(F)c(Nc4ccc(C(=O)Nc5ccccc5Cl)cc4)n3)cc2)CC1", "Class Assignment": "low interval"}
{"Compound": "COc1ccc(CC2c3cc(OC)c(OC)cc3CCN2C)cc1OC (stereo unspecified)", "Class Assignment": "high interval"}
{"Compound": "COc1cccc2c1cc([N+](=O)[O-])c1c(C(=O)O)cc3c(c12)OCO3", "Class Assignment": "low interval"}
{"Compound": "CC(C)(C)OC(=O)c1ncn2c1[C@@H]1CCCN1C(=O)c1c(Br)cccc1-2", "Class Assignment": "middle interval"}
{"Compound": "CN(N=O)c1ccc(O)c(O)c1", "Class Assignment": "high interval"}
{"Compound": "c1cc(N2CCNCC2)c2cc[nH]c2c1", "Class Assignment": "low interval"}
{"Compound": "NC(CCP(=O)(O)O)C(=O)O (stereo unspecified)", "Class Assignment": "high interval"}
{"Compound": "COc1cc2c(cc1O)C(CCc1ccc(Cl)cc1)N(C)CC2 (stereo unspecified)", "Class Assignment": "middle interval"}
{"Compound": "Cc1sc2c(c1C)C(c1ccc(Cl)cc1)=NC(CC(=O)OC(C)(C)C)c1nnc(C)n1-2 (stereo unspecified)", "Class Assignment": "middle interval"}
{"Compound": "CCCCC/C=C\\C/C=C\\C/C=C\\C/C=C\\CCCC(=O)NC1CC1", "Class Assignment": "middle interval"}

====

assay: viability rescue of complex I mutant cybrids, primary screen, cell-based, galactose medium, ATP luminescence (AID 1645843); details: complex I mutant cybrid cells, 72 h, stronger effect = higher value;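 note: positive z means more ATP and so rescue of galactose-driven cybrid death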
Property Label: z-score

{"Compound": "C[C@]12Cc3cn4c(nc3C=C1CCC1C2CC[C@@]2(C)[C@H]1CC[C@@]2(O)C#N)nc1ccccc14 (stereo partly drawn)", "Property Label": "z-score", "Reported Value": -0.25}
{"Compound": "O=C(O)[C@@H]1CCN1", "Property Label": "z-score", "Reported Value": 0.2}
{"Compound": "O=[N+]([O-])/C=C/c1ccc2c(c1)OCO2", "Property Label": "z-score", "Reported Value": -0.995}
{"Compound": "CCCCC1(C2CCCC2)Cc2cc(OCCCC(=O)O)c(Cl)c(Cl)c2C1=O (stereo not drawn)", "Property Label": "z-score", "Reported Value": 3.13}
{"Compound": "NC1CCc2cc(O)c(O)cc2C1 (stereo not drawn)", "Property Label": "z-score", "Reported Value": -0.895}
{"Compound": "Cc1cc(C)cc(C(=O)OC2CC3CCC(C2)N3C)c1 (stereo not drawn)", "Property Label": "z-score", "Reported Value": -0.125}
{"Compound": "O=C(CCCN1CCC2(CC1)C(=O)N(Cc1cccc(F)c1)CN2c1ccccc1)c1ccc(F)cc1", "Property Label": "z-score", "Reported Value": -1.2}
{"Compound": "CC(CCCC(C)(C)O)NC(C)Cc1ccccc1F (stereo not drawn)", "Property Label": "z-score", "Reported Value": -0.515}
{"Compound": "CC(C)(c1ccc(OCC2CO2)cc1)c1ccc(OCC2CO2)cc1 (stereo not drawn)", "Property Label": "z-score", "Reported Value": -0.925}
{"Compound": "COc1ccc(CCN)cc1OC", "Property Label": "z-score", "Reported Value": 0.46}
{"Compound": "c1ccc2c3c([nH]c2c1)CNCC3", "Property Label": "z-score", "Reported Value": -0.425}
{"Compound": "Clc1cc(I)cc(Cl)c1NC1=NCCN1", "Property Label": "z-score", "Reported Value": 0.175}
{"Compound": "C=CCN1CC[C@]23c4c5ccc(O)c4O[C@H]2/C(=N/NC(=O)c2ccccc2)CC[C@@]3(O)[C@H]1C5", "Property Label": "z-score", "Reported Value": -0.33}
{"Compound": "CCN(CC)CCO[C@H]1CC[C@@]2(C)C(=CC[C@@H]3[C@@H]2CC[C@]2(C)C(=O)CC[C@@H]32)C1", "Property Label": "z-score", "Reported Value": -0.79}
{"Compound": "C[C@H](Cc1ccc2c(c1)OC(C(=O)O)(C(=O)O)O2)NC[C@H](O)c1cccc(Cl)c1", "Property Label": "z-score", "Reported Value": 0.755}
{"Compound": "CCCN[C@@H]1CCc2c(OC)cccc2[C@@H]1C", "Property Label": "z-score", "Reported Value": 0.12}
{"Compound": "CC(C(=O)OC1CC2CCC(C1)N2C)c1ccc(Br)cc1 (stereo not drawn)", "Property Label": "z-score", "Reported Value": -0.795}
{"Compound": "CN(C(=O)Cc1ccc(Cl)c(Cl)c1)C(CN1CCCC1)c1cccc(OCC(=O)O)c1 (stereo not drawn)", "Property Label": "z-score", "Reported Value": 0.31}
{"Compound": "CC(C)(O)[C@@H]1[C@H]2OC(=O)[C@@H]1[C@]1(O)C[C@H]3O[C@]34C(=O)O[C@H]2[C@]14C (tested in a mixture with another compound)", "Property Label": "z-score", "Reported Value": 0.54}
{"Compound": "NC(Cc1cc(O)c(O)cc1O)C(=O)O (stereo not drawn)", "Property Label": "z-score", "Reported Value": -0.345}
{"Compound": "CC1=C(C(=O)Nc2ccccc2)SCCO1", "Property Label": "z-score", "Reported Value": -0.385}
{"Compound": "C[C@H](N)CN1CCc2ccc(Br)cc21", "Property Label": "z-score", "Reported Value": -0.65}
{"Compound": "OC12C3C4CC5C6C4C1C6C(C53)N2CCc1cccc(F)c1 (stereo not drawn)", "Property Label": "z-score", "Reported Value": 0.295}
